test system: Plasmodium falciparum; test: Antimalarial activity against chloroquine-sensitive Plasmodium falciparum D6; assay type: functional, organism-based
Reported IC50 values are given for each entry in this list.

# Compound, Test System, IC50, nM
records = [
    ("C[C@@H]1CC[C@H]2[C@@H](C)C(=O)O[C@@H]3O[C@@]4(C)CC[C@@H]1[C@]32OO4 [ARTEMISININ]", "Plasmodium falciparum", 9),
    ("OC(c1cc(C(F)(F)F)nc2c(C(F)(F)F)cccc12)C1CCCCN1 (stereo unspecified) [MEFLOQUINE]", "Plasmodium falciparum", 19),
    ("CC(=O)O[C@H]1C[C@H]2[C@@H]([C@H](OC(C)=O)C[C@@H]3CC4(CC[C@@]32C)OOC2(CCCCC2)OO4)[C@@H]2CC[C@H]([C@H](C)CCCNCCNc3ccnc4cc(Cl)ccc34)[C@@]12C", "Plasmodium falciparum", 33.5),
    ("Clc1ccc2c(NCCNCC3CCC4(CC3)OOC3(CCCCC3)OO4)ccnc2c1", "Plasmodium falciparum", 9.05),
    ("CC(=O)O[C@H]1C[C@H]2[C@@H]([C@H](OC(C)=O)C[C@@H]3CC4(CC[C@@]32C)OOC2(CCCCC2)OO4)[C@@H]2CC[C@H]([C@H](C)CCC(=O)NCCNc3ccnc4cc(Cl)ccc34)[C@@]12C", "Plasmodium falciparum", 6.53),
    ("O=C(NCCNc1ccnc2cc(Cl)ccc12)C1CCC2(CC1)OOC1(CCCCC1)OO2", "Plasmodium falciparum", 2.33),
]

---

test system: Plasmodium falciparum; experiment: Antimalarial activity against multidrug-resistant Plasmodium falciparum TM91C235; type: functional, organism-based

# Compound, Test System, Display Unit, IC90
measured = [
    ("CCN(CC)CCCC(C)Nc1ccnc2cc(Cl)ccc12 (configuration not stated) [CHLOROQUINE]", "Plasmodium falciparum", "nM", 264),
    ("Clc1ccc2c(NCCNCC3CCC4(CC3)OOC3(CCCCC3)OO4)ccnc2c1", "Plasmodium falciparum", "nM", 18.3),
    ("OC(c1cc(C(F)(F)F)nc2c(C(F)(F)F)cccc12)C1CCCCN1 (configuration not stated) [MEFLOQUINE]", "Plasmodium falciparum", "nM", 153),
    ("CC(=O)O[C@H]1C[C@H]2[C@@H]([C@H](OC(C)=O)C[C@@H]3CC4(CC[C@@]32C)OOC2(CCCCC2)OO4)[C@@H]2CC[C@H]([C@H](C)CCC(=O)NCCNc3ccnc4cc(Cl)ccc34)[C@@]12C", "Plasmodium falciparum", "nM", 17.2),
    ("C[C@@H]1CC[C@H]2[C@@H](C)C(=O)O[C@@H]3O[C@@]4(C)CC[C@@H]1[C@]32OO4 [ARTEMISININ]", "Plasmodium falciparum", "nM", 17.4),
    ("CC(=O)O[C@H]1C[C@H]2[C@@H]([C@H](OC(C)=O)C[C@@H]3CC4(CC[C@@]32C)OOC2(CCCCC2)OO4)[C@@H]2CC[C@H]([C@H](C)CCCNCCNc3ccnc4cc(Cl)ccc34)[C@@]12C", "Plasmodium falciparum", "nM", 160),
    ("O=C(NCCNc1ccnc2cc(Cl)ccc12)C1CCC2(CC1)OOC1(CCCCC1)OO2", "Plasmodium falciparum", "nM", 7.38),
]

---

experiment: Toxicity in Plasmodium berghei KBG173-infected perorally dosed ICR mice (Mus musculus) assessed as maximum tolerated dose; type: organism-based; details: in vivo, po

# Mol, MTD
data = [
    ("Clc1ccc2c(NCCNCC3CCC4(CC3)OOC3(CCCCC3)OO4)ccnc2c1", "> 960 mg/kg"),
    ("O=C(NCCNc1ccnc2cc(Cl)ccc12)C1CCC2(CC1)OOC1(CCCCC1)OO2", "> 960 mg/kg"),
]
